Target: Estrogen receptor (Homo sapiens) (UniProt P03372)
Sequence (P03372 whole entry): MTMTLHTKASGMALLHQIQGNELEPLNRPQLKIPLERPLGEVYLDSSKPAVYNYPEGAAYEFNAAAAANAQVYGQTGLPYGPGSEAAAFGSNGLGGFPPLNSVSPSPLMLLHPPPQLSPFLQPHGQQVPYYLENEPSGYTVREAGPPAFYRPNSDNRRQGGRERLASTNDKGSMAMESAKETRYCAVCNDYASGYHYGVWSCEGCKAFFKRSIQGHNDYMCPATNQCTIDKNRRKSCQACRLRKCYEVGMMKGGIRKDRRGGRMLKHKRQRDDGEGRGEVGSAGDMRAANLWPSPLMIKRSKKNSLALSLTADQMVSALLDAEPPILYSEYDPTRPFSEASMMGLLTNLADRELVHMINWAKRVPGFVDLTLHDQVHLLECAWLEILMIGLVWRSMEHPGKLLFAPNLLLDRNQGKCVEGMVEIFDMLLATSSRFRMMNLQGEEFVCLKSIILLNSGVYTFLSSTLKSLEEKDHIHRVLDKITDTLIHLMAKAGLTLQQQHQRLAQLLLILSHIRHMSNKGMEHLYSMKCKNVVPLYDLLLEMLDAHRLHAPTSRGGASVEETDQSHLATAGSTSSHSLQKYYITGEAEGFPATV
Test: Activation of human estrogen receptor alpha expressed in HEK293 cells at 10 uM by beta-galactosidase reporter gene assay relative to 3,17 beta-estradiol
Assay type: cell-based
In this section, each of the compounds is paired with its reported Activity.
Give just the numeric value; % need not be written.

O=C(CC(O)Cc1ccccc1)c1ccccc1 (stereo unspecified) ... 5.3
c1ccc(CCC2=NOC(Cc3ccc4ccccc4c3)C2)cc1 (single isomer, unassigned; 53a) ... 22.3
COC(CC(=O)Cc1ccccc1)Cc1ccc2ccccc2c1 (racemic) ... 48.1
c1ccc(CC2=NOC(c3ccccc3)C2)cc1 (stereo unspecified) ... 19.6
c1ccc(CCCC2=NOC(Cc3ccccc3)C2)cc1 (single isomer, unassigned) ... 28.1

Entry under test: c1ccc(CCC2=NOC(CCc3ccccc3)C2)cc1 (single isomer, unassigned; 18b) . Its Activity was 43.9

Reported Activity for `CS(C)=C(C(=O)CCCc1ccccc1)C(=O)c1ccccc1` was -6

Documented Activity of COc1ccc(CC(CC(=O)CCc2ccccc2)OC)cc1 (stereo unspecified) : 28.5

Measured Activity, `CS(C)=C(C(=O)CCCc1ccccc1)C(=O)Cc1ccccc1` : 3.7

# Activity of COC(CC(=O)CCCc1ccccc1)Cc1ccccc1 (stereo unspecified) = 24.5

# compound COC(CC(=O)CCc1ccccc1)Cc1cccc2ccccc12 (stereo unspecified) ; its Activity = 35.5

---

Entries and their Activity
Target: Estrogen receptor (Homo sapiens) (UniProt P03372)
Experiment: Activation of human estrogen receptor alpha expressed in HEK293 cells at 10 uM by beta-galactosidase reporter gene assay relative to 3,17 beta-estradiol
Type: cell-based

// solved cases for Activity follow
Oc1ccc(CCC2=NOC(Cc3ccc(F)cc3)C2)cc1 (configuration not stated) ... 5.7%
Oc1ccc(CC2CC(CCc3ccccc3)=NO2)cc1 (single isomer, unassigned; 69a) ... 34.2%
Oc1ccc(CCC2=NOC(Cc3ccccc3)C2)cc1 (single isomer, unassigned) ... 24.3%
c1ccc(CC2=NOC(Cc3ccccc3)C2)cc1 (single isomer, unassigned; 14a) ... -1.3%
COC(CC(=O)Cc1ccc(F)cc1)Cc1cccc2ccccc12 (single isomer, unassigned; 62a) ... 0.2%

Memo: COC(CC(=O)CCc1ccccc1)Cc1ccccc1 (configuration not stated) , reported Activity: 9.9%

# Activity (compound: `CS(C)=C(C(=O)CCc1ccccc1)C(=O)CCc1ccccc1` ) is 1%

response.value for Fc1ccc(CC2CC(CCc3ccccc3)=NO2)cc1 (configuration not stated) (field: Activity) = 99.2%

Entry O=C(CCc1ccccc1)CC(O)Cc1cccc2ccccc12 (configuration not stated) ; Activity = 12.1%

---

Target: Estrogen receptor beta (Homo sapiens) (UniProt Q92731)
Sequence (Q92731 whole entry): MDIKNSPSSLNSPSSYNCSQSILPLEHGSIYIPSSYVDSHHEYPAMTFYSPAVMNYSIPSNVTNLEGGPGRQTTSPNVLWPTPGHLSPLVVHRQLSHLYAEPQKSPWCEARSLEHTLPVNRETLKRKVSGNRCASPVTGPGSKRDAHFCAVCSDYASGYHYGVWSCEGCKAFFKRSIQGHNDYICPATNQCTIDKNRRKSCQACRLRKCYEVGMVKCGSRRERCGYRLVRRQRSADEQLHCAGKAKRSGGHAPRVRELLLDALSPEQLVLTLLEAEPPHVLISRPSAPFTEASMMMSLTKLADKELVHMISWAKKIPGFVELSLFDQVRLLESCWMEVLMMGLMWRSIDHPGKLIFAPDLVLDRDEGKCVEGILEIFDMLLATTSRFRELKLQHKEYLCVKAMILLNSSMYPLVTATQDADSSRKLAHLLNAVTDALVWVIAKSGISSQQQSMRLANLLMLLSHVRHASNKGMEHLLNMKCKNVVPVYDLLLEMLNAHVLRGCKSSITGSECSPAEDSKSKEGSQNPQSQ
Assay: Activation of human estrogen receptor beta expressed in HEK293 cells at 10 uM beta-galactosidase reporter gene assay relative to 3,17-beta-estradiol
Format: cell-based
measuredEndpoint: Activity
Give the figure together with its unit, number first.

The following molecules have reported results that may help.
CS(C)=C(C(=O)Cc1ccccc1)C(=O)Cc1ccccc1 ... -0.4%
COC(CC(=O)CCc1ccccc1)Cc1ccc(F)cc1 (stereo unspecified) ... 11.2%
c1ccc(CCC2=NOC(Cc3ccc4ccccc4c3)C2)cc1 (single isomer, unassigned; 53b) ... 3.8%
O=C(CC(O)Cc1ccccc1)c1ccccc1 (stereo unspecified) ... 16.9%
O=C(CCCc1ccccc1)CC(=O)Cc1ccccc1 ... 4.2%

Consider O=C(CCc1ccccc1)CC(O)c1ccccc1 (single isomer, unassigned; 23b) . Its measured Activity is 2.8%

Recorded result, `CS(C)=C(C(=O)CCc1ccccc1)C(=O)Cc1ccccc1` , Activity: -7.1%

Notebook: `CS(C)=C(C(=O)CCc1ccccc1)C(=O)c1ccccc1` , Activity read as 3.3%

Entry `CS(C)=C(C(=O)CCc1ccccc1)C(=O)CCc1ccccc1` ; Activity = 0.3%

The molecule listed as Oc1ccc(CCC2=NOC(Cc3ccccc3)C2)cc1 (stereo unspecified) shows Activity equal to 143%

According to the records, this molecule Oc1cccc(CCC2=NOC(Cc3ccccc3)C2)c1 (single isomer, unassigned) displays Activity of 6.7%

Numbers sourced from ChEMBL document CHEMBL1150775.
